Overview of reported MFI across a group of binders:
# Target Of Assay: human CTLA-4 (human) (UniProt P16410)
# Sequence (P16410 36-223): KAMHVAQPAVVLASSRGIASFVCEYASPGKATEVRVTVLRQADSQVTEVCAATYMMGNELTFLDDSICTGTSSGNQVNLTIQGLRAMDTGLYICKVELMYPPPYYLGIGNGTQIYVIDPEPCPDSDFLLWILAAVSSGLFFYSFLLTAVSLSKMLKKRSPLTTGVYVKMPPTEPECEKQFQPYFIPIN
# Protocol Text: flow cytometry, Expi293F cells transfected with CTLA-4
Return type: number; implicit unit MFI.

Binder	MFI [MFI]
CD80 A91G/F92L/F108L/I118V/T120S ECD-Fc (Fc fusion) VIHVTKEVKEVATLSCGHNVSVEELAQTRIYWQKEKKMVLTMMSGDMNIWPEYKNRTIFDITNNLSIVILALRPSDEGTYECVVLKYEKDGLKREHLAEVTLSVKADLPTPSISDFEVPSSNIRRIICSTSGGFPEPHLSWLENGEELNAINTTVSQDPETELYAVSSKLDFNMTTNHSFMCLIKYGHLRVNQTFNWNTTKQEHFPDN	128

Lab note: next binder to report on.
# get_value(readout='MFI', item= CD80 A12V/S15F/Y31H/M38L/T41G/M43L/D90N/T130A/P137L/N149D/N152T ECD-Fc (Fc fusion) VIHVTKEVKEVVTLFCGHNVSVEELAQTRIHWQKEKKLVLGMLSGDMNIWPEYKNRTIFDITNNLSIVILALRPSDEGTYECVVLKYEKNAFKREHLAEVTLSVKADFPTPSISDFEIPTSNIRRIICSASGGFPELHLSWLENGEELDAITTTVSQDPETELYAVSSKLDFNMTTNHSFMCLIKYGHLRVNQTFNWNTTKQEHFPDN )
6
